- test method notes: PTR-MS headspace release with various non-aqueous liquids (diols) at 0.05:100 (Example 3)
- Assay type: physicochemical
- condition context: non-aqueous liquid 1,3-butanediol; ratio 0.05:100; diluted in water
recorded endpoint: PTR-MS headspace release in 1,3-butanediol
The answer should be a number; do not append a unit.

The examples below pair each entry with its known result.
compound | recorded measurement
CCCCCCO | 0.3
CC(C)CC=O | 40.9
C=C(C)[C@H]1CC=C(C)CC1 | 13.5
CCCCCCCCO | 4.0
CCCCCCCC=O | 42.9
COc1ccccc1O | 28.4
CCCC(=O)OCC [Ethyl butyrate] | 141.5
CCO | 20.7
CC(C)=CCCC(C)=CC=O | 6.0
CC(=O)O | 16.9

Query: Item under review: Cc1nc(C)c(C)nc1C . Reported PTR-MS headspace release in 1,3-butanediol?
Response: 12.3

Query: Item under review: CC=O . Reported PTR-MS headspace release in 1,3-butanediol?
Response: 157.0

Query: Item under review: CCCCOC(=O)CCC [Butyl butyrate] . Reported PTR-MS headspace release in 1,3-butanediol?
Response: 27.9

----------
- test method notes: PTR-MS real-time headspace release, watermelon flavor model in water (Example 1)
- Format: physicochemical
- Design: unit not given here
- condition context: PTR-MS headspace; watermelon flavor concentrate in propylene glycol, diluted in water; 90 minutes equilibration; mean of three
So basically, if Sample A (PG) Mean comes in under 0.9 it's class 1, and if it's 0.9 or more it's class 0.

Below are worked cases with known answers.
compound | group
O=Cc1ccccc1 | class 0
CC(C=O)Cc1ccc(C(C)C)cc1 (stereo not drawn) | class 1
COc1cc(C=O)ccc1O | class 1
CCc1occc(=O)c1O | class 0

Query: Hello, is Sample A (PG) Mean of the following compound strictly smaller than 0.9? CCCCCCC(C=O)=Cc1ccccc1
Response: class 0

Query: Hello, is Sample A (PG) Mean of the following compound strictly smaller than 0.9? CCC(C)COC(C)=O (stereo not drawn) [2-methylbutyl acetate]
Response: class 0

Query: Hello, is Sample A (PG) Mean of the following compound strictly smaller than 0.9? CC(=O)CCc1ccc(O)cc1
Response: class 1

Query: Hello, is Sample A (PG) Mean of the following compound strictly smaller than 0.9? CCO
Response: class 0

Query: Hello, is Sample A (PG) Mean of the following compound strictly smaller than 0.9? CCOC(C)=O [Ethyl acetate]
Response: class 0

Query: Hello, is Sample A (PG) Mean of the following compound strictly smaller than 0.9? C/C=C\C(=O)C1C(C)=CCCC1(C)C (stereo not drawn)
Response: class 1

----------
Some compounds, each annotated with its measured PTR-MS headspace release in 1,4-butanediol.
- test method notes: PTR-MS headspace release with various non-aqueous liquids (diols) at 0.05:100 (Example 3)
- Format: physicochemical
- condition context: non-aqueous liquid 1,4-butanediol; ratio 0.05:100; diluted in water
- Description: […]. The flavoring was then diluted in water for analysis. […] A variety of non-aqueous liquids were evaluated, including 1,4-butandiol; 1,7-heptandiol; 1,3-butandiol, propylene glycol, and 1,3-propanediol. Samples were analyzed by PTR-MS as described in Example 1. Percent suppression was calculated by the following formula: (I1-3-diol−Ialternate diol)/Ialternate diol×100.
The answer should be a number; do not append a unit.

compound | recorded measurement
CCCC(=O)O | 143.8
CCCCOC(=O)CCC [Butyl butyrate] | 49.4
SCc1ccco1 | 0.3
CCCCCCCCCC(=O)OCC [Ethyl decanoate] | 258.0
Cc1nc(C)c(C)nc1C | 20.5

Query: Item under review: O=Cc1ccccc1 . Reported PTR-MS headspace release in 1,4-butanediol?
Response: 354.0

Query: Item under review: CC(C)=CCCC(C)=CC=O . Reported PTR-MS headspace release in 1,4-butanediol?
Response: 13.5

Query: Item under review: CCCCCCO . Reported PTR-MS headspace release in 1,4-butanediol?
Response: 0.5

Query: Item under review: CCCC(=O)OCC [Ethyl butyrate] . Reported PTR-MS headspace release in 1,4-butanediol?
Response: 239.3

----------
- test method notes: PTR-MS headspace release at various flavor compound to 1,3-propanediol or PG ratios (Example 2)
- Format: physicochemical
- condition context: ratio 5:100; (IZ−IPG)/IPG×100
Some molecules, each annotated with its measured Percent Suppression by 1,3-propanediol.
Give the value, in units of %, as a plain number.

The examples below pair each entry with its known result.
molecule | unit name | Percent Suppression by 1,3-propanediol
C=C(C)[C@H]1CC=C(C)CC1 | % | −34.8
CCO | % | −12.1
CC(C)CC=O | % | −22.2
SCc1ccco1 | % | 15.9
CC=O | % | −57.4
Cc1nc(C)c(C)nc1C | % | −17.8

Query: Item under review: CCCCCCCC=O . Reported Percent Suppression by 1,3-propanediol?
Response: −21.1

Query: Item under review: CCCCCCO . Reported Percent Suppression by 1,3-propanediol?
Response: −9.8

Query: Item under review: CC(=O)O . Reported Percent Suppression by 1,3-propanediol?
Response: −1.7

----------
- test method notes: PTR-MS headspace release at various flavor compound to 1,3-propanediol or PG ratios (Example 2)
- Assay type: physicochemical
- condition context: ratio 15:100; (IZ−IPG)/IPG×100
recorded endpoint: Percent Suppression by 1,3-propanediol (%)
Give the value, in units of %, as a plain number.

The examples below pair each entry with its known result.
smiles | Percent Suppression by 1,3-propanediol / %
CC(C)CC=O | −2.6
SCc1ccco1 | −13.1
CC(=O)O | −9.0
CC(C)=CCCC(C)=CC=O | −58.2
CCCCCCCCO | −0.6

Query: Item under review: Cc1nc(C)c(C)nc1C . Reported Percent Suppression by 1,3-propanediol?
Response: −5.6

Query: Item under review: CCCCCCCC=O . Reported Percent Suppression by 1,3-propanediol?
Response: −2.5

----------
- test method notes: PTR-MS headspace release at various flavor compound to 1,3-propanediol or PG ratios (Example 2)
- Assay type: physicochemical
- condition context: ratio 0.005:100; (IZ−IPG)/IPG×100; negative = suppressed vs PG
- Protocol: The compounds listed below in Table 3 were added together to provide a liquid flavoring to analyze the role, if any, of the amount of 1,3-propanediol on flavor release. […] The percent suppression was calculated using the following formula: (IZ−IPG)/IPG×100, where I is peak height, “Z” is 1,3-propanediol and “PG” is propylene glycol.
Some compounds, each annotated with its measured Percent Suppression by 1,3-propanediol.
Give the value, in units of %, as a plain number.

compound | recorded measurement
CC=O [Acetaldehyde] | −22.1
CCCCCCCCCC(=O)OCC [Ethyl decanoate] | −2.0

Query: Item under review: COc1ccccc1O [Guaiacol] . Reported Percent Suppression by 1,3-propanediol?
Response: −3.4

----------
- test method notes: PTR-MS real-time headspace release, watermelon flavor model in water (Example 1)
- Assay type: physicochemical
- Design: unit not given here
- condition context: PTR-MS headspace; watermelon flavor concentrate in 1,3-propanediol, diluted in water; 90 minutes equilibration; mean of three
recorded endpoint: Sample B (1,3-propanediol) Mean
The answer should be a number; do not append a unit.

The examples below pair each entry with its known result.
compound | Sample B (1,3-propanediol) Mean
CCOC(C)=O [Ethyl acetate] | 1410
O=CCc1ccccc1 | 0.78
CCO | 24.50
CCCCCCC(C=O)=Cc1ccccc1 | 1.32
CC(C=O)Cc1ccc(C(C)C)cc1 (stereo not drawn) | 0.36
CCCC(=O)OCC [Ethyl butyrate] | 5827

Query: Item under review: CCC/C=C/C(=O)O [Trans-2-hexenoic acid] . Reported Sample B (1,3-propanediol) Mean?
Response: 0.86

----------
- test method notes: PTR-MS headspace release at various flavor compound to 1,3-propanediol or PG ratios (Example 2)
- Assay type: physicochemical
- condition context: ratio 0.05:100; (IZ−IPG)/IPG×100
So basically, if Percent Suppression by 1,3-propanediol comes in under -30% it's condition met, and if it's -30% or more it's condition not met.

Below are worked cases with known answers.
compound | group
CC(=O)O [Acetic acid] | condition not met
O=Cc1ccccc1 [Benzaldehyde] | condition met
CCCCCCO [Hexanol] | condition met
CCCC(=O)O [Butyric acid] | condition not met
CCCCOC(=O)CCC [Butyl butyrate] | condition not met

Query: Hello, is Percent Suppression by 1,3-propanediol of the following compound strictly smaller than -30%? CC(C)=CCCC(C)=CC=O [Citral, 3,7-dimethyl-2,6-octadienal]
Response: condition met

Query: Hello, is Percent Suppression by 1,3-propanediol of the following compound strictly smaller than -30%? CC(C)CC=O [Isovaleraldehyde]
Response: condition not met

Query: Hello, is Percent Suppression by 1,3-propanediol of the following compound strictly smaller than -30%? C=C(C)[C@H]1CC=C(C)CC1 [Limonene]
Response: condition not met

Query: Hello, is Percent Suppression by 1,3-propanediol of the following compound strictly smaller than -30%? Cc1nc(C)c(C)nc1C [Tetramethyl pyrazine]
Response: condition met

Query: Hello, is Percent Suppression by 1,3-propanediol of the following compound strictly smaller than -30%? CC=O [Acetaldehyde]
Response: condition met

Query: Hello, is Percent Suppression by 1,3-propanediol of the following compound strictly smaller than -30%? SCc1ccco1 [Furfuryl mercaptan]
Response: condition not met

Query: Hello, is Percent Suppression by 1,3-propanediol of the following compound strictly smaller than -30%? COc1ccccc1O [Guaiacol]
Response: condition met

Query: Hello, is Percent Suppression by 1,3-propanediol of the following compound strictly smaller than -30%? CCCCCCCCO [Octanol]
Response: condition not met

Query: Hello, is Percent Suppression by 1,3-propanediol of the following compound strictly smaller than -30%? CCO [Ethanol]
Response: condition met

Query: Hello, is Percent Suppression by 1,3-propanediol of the following compound strictly smaller than -30%? CCCC(=O)OCC [Ethyl butyrate]
Response: condition not met

Query: Hello, is Percent Suppression by 1,3-propanediol of the following compound strictly smaller than -30%? CCCCCCCC=O [Octanal]
Response: condition not met

Query: Hello, is Percent Suppression by 1,3-propanediol of the following compound strictly smaller than -30%? CCCCCCCCCC(=O)OCC [Ethyl decanoate]
Response: condition not met
